- measured on: T1, recombinant human Siglec-8 extracellular domain (ECD) (human, UniProt Q9NYZ4 17-363)
- T1 construct: extracellular domain; also called Siglec-8 ECD; full Siglec-8 ECD
- test: ELISA, coated Siglec-8 ECD
Recorded EC50 by entry
# number only, unit nM dropped from output

Examples with answers:
binder	EC50 (nM)
HGKE (antibody, human IgG1, V domains shown, human IgG1/kappa) VH: EVQLVESGGGLVQPGGSLRLSCAASGFSLTIYGAHWVRQAPGKGLEWVSVIWAGGSTNYNSALMSRFSISKDNSKNTVYLQMNSLRAEDTAVYYCARDGSSPYYYSMEYWGQGTTVTVSS VL: EIVLTQSPATLSLSPGERATLSCSATSSVSYMHWFQQKPGQAPRLLIYSTSNLASGVPARFSGSGSGTDFTLTISSLEPEDFAVYYCQQRSSYPFTFGPGTKLDIK	0.116
HEKG (antibody, human IgG1, V domains shown, human IgG1/kappa) VH: EVQLVESGGGLVQPGGSLRLSCAASGFSLTIYGAHWVRQAPGKGLEWVGVIWAGGSTNYNSALMSRFTISKDNSKNTVYLQMNSLRAEDTAVYYCARDGSSPYYYSMEYWGQGTTVTVSS VL: EIVLTQSPATLSLSPGERATLSCSATSSVSYMHWYQQKPGQAPRLLIYSTSNLASGIPARFSGSGSGTDFTLTISSLEPEDFAVYYCQQRSSYPFTFGPGTKLDIK	0.302

In the following, a different binder is considered.
Item under review: HDKF (antibody, human IgG1, V domains shown, human IgG1/kappa) VH: EVQLVESGGGLVQPGGSLRLSCAASGFSLTIYGAHWVRQAPGKGLEWLSVIWAGGSTNYNSALMSRFTISKDNSKNTVYLQMNSLRAEDTAVYYCARDGSSPYYYSMEYWGQGTTVTVSS VL: EIVLTQSPATLSLSPGERATLSCSATSSVSYMHWFQQKPGQAPRLLIYSTSNLASGIPARFSGSGSGTDYTLTISSLEPEDFAVYYCQQRSSYPFTFGPGTKLDIK . Reported EC50? 0.057
